substrate: vinyl propionate; details: pH 7; 25 °C

PROTEIN	UNITS	kcat/Km
unnamed (protein) MAKKDEHLRKPEWLKIKLNTNENYTGLKKLMRENNLHTVCEEAKCPNIHECWAVRRTATFMILGSVCTRACRFCAVKTGLPTELDLQEPERVADSVALMNLKHAVITAVARDDQKDGGAGIFAETVRAIRRKSPFTTIEVLPSDMGGNYDNLKTLMDTRPDILNHNIETVRRLTPRVRARATYDRSLEFLRRAKEMQPDIPTKSSIMIGLGETKEEIIEVMDDLLANNVDIMAIGQYLQPTKKHLKVQKYYHPDEFAELKEIAMQKGFSHCEAGPLVRSSYHADEQVNEASKKRQAQA	M⁻¹ s⁻¹	25800
